// composite z-score lookup, one value per entry
# Tested on: Human papillomavirus type 1a E7 protein (residues 1-88)
# experimental.protocol: HPV1a E7 small-molecule binders, primary screen, biochemical, small-molecule microarray, residues 1-88, 635 nm (AID 1129)
# condition.notes: small-molecule microarray binding, fluorescence 635 nm; higher = more signal
metric: composite z-score

>>> reported_result("COc1ccc(C#Cc2ccc3c(c2)[C@]2(C(=O)N3)[C@H](C(=O)O)[C@H]3C(=O)O[C@H](c4ccccc4)[C@H](c4ccccc4)N3[C@@H]2c2ccc(O)cc2)cc1")
0.691
>>> reported_result("O=C1C2C=CC(C(O)c3cccc(O)c3)N(Nc3ccc([N+](=O)[O-])cc3)C2C(=O)N1c1ccccc1 (stereo not given)")
0.785
>>> reported_result("C=C[C@H]1C(C(=O)OCC)=CC[C@@H](c2ccccc2)N1S(=O)(=O)c1ccc(C)cc1")
1.22
>>> reported_result("NC(=O)[C@@]1(Cc2ccccc2)COC(c2ccc(OCCCO)cc2)=N1")
-0.974
>>> reported_result("[N-]=[N+]=NCc1ccccc1C[C@@]1(C(N)=O)N=C(c2ccc(OCCCO)cc2)O[C@@H]1c1ccccc1")
1.03
>>> reported_result("CS(=O)(=O)CCOC(=O)C1=CC(c2ccc(CO)cc2)=CC(C2CC2)N(Cc2sc3ccccc3c2Cl)C=C1C(=O)OCCS(C)(=O)=O (stereo not given)")
0.795
>>> reported_result("COc1ccc(CCNC(=O)[C@@]2(Sc3ccc(C)cc3)CC(=O)N(Cc3ccccc3C(F)(F)F)[C@@H]2c2ccc(CO)cc2I)cc1")
0.0953
>>> reported_result("COC(=O)C1=CC(CCCO)=CC(c2cccs2)N(C)C=C1C(=O)OC (stereo not given)")
-0.5
>>> reported_result("NCCCCCNC(=O)[C@@H]1C[C@@H]2C(=O)N[C@@H](CCCCN)C(=O)N2[C@@H]1c1ccc(O)cc1")
1.23
>>> reported_result("O=C(NCCN1CCOCC1)[C@@H]1c2ccccc2C(=O)N(Cc2ccccc2Cl)[C@H]1c1ccc(CO)cc1")
-0.867
